measured-target: furin, P09958;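 note: purified furin at 1:10 enzyme:substrate in 50 mM HEPES pH 7.5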
Sequence (P09958 whole entry): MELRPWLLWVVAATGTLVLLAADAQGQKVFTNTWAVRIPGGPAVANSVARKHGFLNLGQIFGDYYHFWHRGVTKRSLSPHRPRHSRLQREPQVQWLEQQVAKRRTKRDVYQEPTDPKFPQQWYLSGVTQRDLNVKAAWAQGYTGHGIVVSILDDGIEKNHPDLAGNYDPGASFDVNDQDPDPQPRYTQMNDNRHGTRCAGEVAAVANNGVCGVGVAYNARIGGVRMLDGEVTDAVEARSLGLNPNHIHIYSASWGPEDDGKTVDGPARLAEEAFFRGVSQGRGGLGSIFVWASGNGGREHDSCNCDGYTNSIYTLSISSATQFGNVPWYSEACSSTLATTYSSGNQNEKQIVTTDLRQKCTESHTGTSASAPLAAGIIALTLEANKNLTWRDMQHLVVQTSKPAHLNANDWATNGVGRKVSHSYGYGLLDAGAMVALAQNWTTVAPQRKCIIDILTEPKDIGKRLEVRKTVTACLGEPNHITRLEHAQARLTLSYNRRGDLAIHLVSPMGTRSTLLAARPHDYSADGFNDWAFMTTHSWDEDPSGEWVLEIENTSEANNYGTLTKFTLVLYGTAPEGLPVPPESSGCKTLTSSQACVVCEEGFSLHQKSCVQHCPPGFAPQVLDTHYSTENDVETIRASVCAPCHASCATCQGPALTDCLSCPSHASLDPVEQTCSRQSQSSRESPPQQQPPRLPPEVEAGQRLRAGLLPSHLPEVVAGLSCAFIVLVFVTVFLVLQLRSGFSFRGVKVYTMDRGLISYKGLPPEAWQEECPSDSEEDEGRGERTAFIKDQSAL
protocol: furin cleavage Z-score vs untreated control; higher = more cleavage, active = 3.5 or more, inactive = 1 or less, 8 variable residues between constant flanks
applied-conditions: 30 min
Some of the results follow. No count for the full screen is at hand.
Allowed answers: true (1) for active, false (0) for inactive

What was the test verdict on CALRYRHKRLAGNASASA [FS-1542] ? true (1)

Hi, do you know how CARTTRSVVHAGNASASA [FS-2837] came out in this test? false (0)

Identify the outcome logged in this assay for the sequence shown: CARFRRGARSAGNASASA [FS-1703] true (1)

In this assay, the call recorded for CAVVCHSMSYAGNASASA [HC89] was what? false (0)

# outcome recorded in this test, key = CARELRNVGVAGNASASA [FS-1695] false (0)

# fetch the recorded call for CARMVRSVKVAGNASASA [FS-1754] here true (1)

Test call, this sequence: CALRYRHKRIAGNASASA [FS-1541] true (1)

GET /call?item= CAYVCCSMSYAGNASASA [HC1989] returns the recorded outcome of this test. false (0)

Give the logged outcome of this assay for the following sequence: CAVVCCSMSTAGNASASA [HC2098] false (0)

Tell me the recorded outcome of this test for CAVVLVGLMAAGNASASA [HC571] . false (0)

For CAELTTPCSGAGNASASA [HC1965] , which call appears in the assay record? false (0)

Fill in: this test's call for CAEVPCHRPVAGNASASA [HC2410] is ___ false (0)

Could you kindly confirm the outcome this assay logged for CACQDHLEFWAGNASASA [HC936] ? false (0)

# outcome recorded in this test, key = CAEVDTSTWVAGNASASA [HC2191] false (0)
